Test system: Molm13 cells
Test: Cell Glo Viability Assay (Luminescence), Molm13
Format: cell-based
Settings: Homo sapiens, MOLM-13, 120 h, 5 days, CellTiter-Glo, read-out: Cellular EC50 (μM) Molm13
Where a name gives a salt, the structure may show the parent alone.
Listed compounds paired with reported EC50
value-kind: EC50 (µM)

Clc1ccccc1CNc1nccc(-c2cnc3c(NCCN4CCOCC4)nccn23)n1 [Example 88, hydrochloride] :: 0.037
N[C@H]1CC[C@H](Nc2nccn3c(-c4ccnc(NCc5ccccc5)n4)cnc23)CC1 [Example 68, hydrochloride] :: 0.061
NCCC(Nc1cccc(-c2cnc3c(NCCN4CCOCC4)nccn23)n1)c1cccc(Cl)c1 (stereo not shown) [Example 90, hydrochloride] :: 0.034
NCCC(Nc1cccc(-c2cnc3c(N[C@H]4CC[C@H](N)CC4)nccn23)n1)c1ccccc1 (stereo partly shown) [Example 81, hydrochloride] :: 0.255
CNc1nccn2c(-c3ccnc(Nc4ccccc4)n3)cnc12 [Example 20] :: 0.052
N[C@H]1CC[C@H](Nc2nccn3c(-c4cccc(NCc5cccc(Cl)c5)n4)cnc23)CC1 [Example 82, hydrochloride] :: 0.119
NCC(Nc1cccc(-c2cnc3c(N[C@H]4CC[C@H](N)CC4)nccn23)n1)c1ccccc1 (stereo partly shown) [Example 80, hydrochloride] :: 0.041
N[C@H]1CC[C@H](Nc2nccn3c(-c4cccc(NCc5ccsc5)n4)cnc23)CC1 [Example 84, hydrochloride] :: 0.056
c1ccc(CNc2nccc(-c3cnc4c(NCCN5CCOCC5)nccn34)n2)cc1 [Example 72, hydrochloride] :: 0.171
CC(C)Nc1nccc(-c2cnc3c(NCCO)nccn23)n1 [Example 30] :: 2.19
N[C@H]1CC[C@H](Nc2nccn3c(-c4cccc(NCc5ccccc5)n4)cnc23)CC1 [Example 73, hydrochloride] :: 0.077
NCCC(Nc1nccc(-c2cnc3c(N[C@H]4CC[C@H](N)CC4)nccn23)n1)c1ccccc1 (stereo partly shown) [Example 76, hydrochloride] :: 0.301
NCC(Nc1nccc(-c2cnc3c(N[C@H]4CC[C@H](N)CC4)nccn23)n1)c1ccccc1 (stereo partly shown) [Example 77, hydrochloride] :: 0.08
CNc1nccc(-c2cnc3c(NC4CCNCC4)nccn23)n1 [Example 26] :: 2.56
